experimental-system: SARS-CoV-2 RBD (Table A) (SARS-CoV-2), P0DTC2
assay-notes: ELISA, purified IgG
particulars: remark: other sources report otherwise
measurement-name: ELISA OD 450 nm (OD 450 nm)
Write the value in OD 450 nm as a bare number.

Guide cases for ELISA OD 450 nm, answers given:
binder	measurement-name	recorded-number
COV2-2096 (antibody, V domains shown) VH: QVQLVQSGAEVKKPGASVKVSCKASGYTFGSFDINWVRQATGQGLEWMGRMNSNSGNTAYAQKFQGRVTMTRDTSTNTAYMELSSLRSEDTAMYYCARMRSGWPTHGRPDDFWGRGTLVTVSS VL: QSVLTQAPSASGTPGQRVTISCSGSNSNIGSYTINWYQQLPGTAPKLLIYGNDQRTSGVPDRFSGSKFGTSASLAISGLQSEDENNYYCAVWDDSLNGLVFGGGTKLTVL	ELISA OD 450 nm	4.3
COV2-2391 (antibody, V domains shown) VH: QVQLVQSGAEVKKPGASVKVSCKASGYTFGSFDINWVRQATGQGLEWMGRMNSNSGNTAYAQKFQGRVTMTRDTSTNTAYMELSSLRSEDTAMYYCARMRSGWPTHGRPDDFWGRGTLVTVSS VL: QSVLTQAPSASGTPGQRVTISCSGSNSNIGSYTINWYQQLPGTAPKLLIYGNDQRTSGVPDRFSGSKFGTSASLAISGLQSEDENNYYCAVWDDSLNGLVFGGGTKLTVL	ELISA OD 450 nm	3.65
COV2-2952 (antibody, V domains shown) VH: EVQLVESGGGLVQPGGSLRLSCAASGLTVRSNYMTWVRQTPGKGLEWVSVIYSGGSTFYADSVKGRFTISRDNSKNTVYLQMNSLRAEDTAVYYCARDLVTYGLDVWGQGTTVTVSS VL: DIQLTQSPSFLSASVGDRVTITCRASQGISNYLAWYQQKPGTAPNLLIYAASTLQSGVPSRFSGSGSGTEFTLTISSLQPEDFATYYCQLLNSHPLTFGQGTRLEIK	ELISA OD 450 nm	3.55

Then there is this binder:
Q: Give ELISA OD 450 nm for the following binder: COV2-2165 (antibody, V domains shown) VH: EVQLVESGGGLVQPGGSLRLSCAASGLTVRSNYMTWVRQTPGKGLEWVSVIYSGGSTFYADSVKGRFTISRDNSKNTVYLQMNSLRAEDTAVYYCARDLVTYGLDVWGQGTTVTVSS VL: DIQLTQSPSFLSASVGDRVTITCRASQGISNYLAWYQQKPGTAPNLLIYAASTLQSGVPSRFSGSGSGTEFTLTISSLQPEDFATYYCQLLNSHPLTFGQGTRLEIK
Result: 4.2

FYI, the data here is from patent US20210300999A1.
